Biological target: endogenous mGlu5 in hippocampal neurons (Rattus norvegicus, UniProt P31424)
Sequence (P31424 21-1203): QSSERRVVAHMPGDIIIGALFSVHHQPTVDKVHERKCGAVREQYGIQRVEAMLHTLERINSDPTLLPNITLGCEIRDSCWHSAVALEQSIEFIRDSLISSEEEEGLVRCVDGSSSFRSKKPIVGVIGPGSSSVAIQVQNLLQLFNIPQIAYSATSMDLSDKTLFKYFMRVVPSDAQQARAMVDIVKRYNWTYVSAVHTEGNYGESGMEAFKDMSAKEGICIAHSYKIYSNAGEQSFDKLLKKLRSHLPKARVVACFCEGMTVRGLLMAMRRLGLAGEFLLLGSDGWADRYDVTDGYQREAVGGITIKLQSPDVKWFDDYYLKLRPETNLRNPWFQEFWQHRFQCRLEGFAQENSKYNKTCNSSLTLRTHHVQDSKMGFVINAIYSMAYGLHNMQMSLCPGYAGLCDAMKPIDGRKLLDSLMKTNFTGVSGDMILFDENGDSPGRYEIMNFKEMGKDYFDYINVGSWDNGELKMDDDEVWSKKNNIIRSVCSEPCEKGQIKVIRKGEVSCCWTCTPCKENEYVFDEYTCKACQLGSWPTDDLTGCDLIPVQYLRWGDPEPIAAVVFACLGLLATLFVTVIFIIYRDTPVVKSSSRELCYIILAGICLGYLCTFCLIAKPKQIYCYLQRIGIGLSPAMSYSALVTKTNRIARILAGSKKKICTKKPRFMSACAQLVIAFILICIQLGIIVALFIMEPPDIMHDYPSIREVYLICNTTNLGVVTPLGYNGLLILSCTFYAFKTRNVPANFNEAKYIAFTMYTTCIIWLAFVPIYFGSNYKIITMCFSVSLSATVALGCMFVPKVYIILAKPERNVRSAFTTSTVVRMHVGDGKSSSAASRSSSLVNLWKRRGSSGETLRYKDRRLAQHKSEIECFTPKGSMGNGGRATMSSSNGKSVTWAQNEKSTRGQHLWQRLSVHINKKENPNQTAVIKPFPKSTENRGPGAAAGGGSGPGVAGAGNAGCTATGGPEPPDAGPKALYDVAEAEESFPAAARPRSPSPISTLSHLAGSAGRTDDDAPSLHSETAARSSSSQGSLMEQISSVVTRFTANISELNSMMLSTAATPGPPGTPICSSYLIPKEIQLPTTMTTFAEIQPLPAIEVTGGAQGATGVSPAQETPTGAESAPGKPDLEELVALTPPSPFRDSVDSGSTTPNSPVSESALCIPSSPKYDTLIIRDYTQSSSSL
Assay: Fluorescence-based Ca2+ flux assay with a microplate reader
# pIC50 values compiled below
The quantity pIC50 is defined as the negative base-10 logarithm of the molar concentration.

Example results:
C[C@@H](Oc1nnc(-c2ccncc2)n1C)c1cc(-c2cccc(Cl)c2)on1 ... 7.02
Cc1nc(C#Cc2ccnc(Cl)c2)c(C)n1-c1ccc(F)cc1 ... 8.05
CN1CC(=O)N=C1NC(=O)Nc1cccc(Cl)c1 ... 6.35

Next, consider the following compound.
Ask | For COC(=O)N1CC[C@@H]2[C@H]1CCC[C@@]2(O)C#Cc1cccc(C)c1 , what is its reported pIC50?
Reply | 6.59
